Tested on: M14
Test: NCI tumour cell line growth inhibition, 48 h
Calls of active or inactive are those of the source. Cut-off read from the data, not from the text of the source: active = GI50 up to about 1.1 µM and inactive = higher.
Readout Kind: GI50

Cc1ccccc1/N=N/c1ccc(N/N=C2/CCCNC2=O)c(C)c1 :: > 100 µM (inactive)
O=C(CCCC(=O)N1CC(CCl)c2ccc([N+](=O)[O-])cc21)N1CC(CCl)c2ccc([N+](=O)[O-])cc21 (stereo unspecified) :: > 100 µM (inactive)
N#Cc1c(-c2ccccc2)nc(-c2ccccc2)sc1=S :: > 100 µM (inactive)
NS(=O)(=O)c1ccc(CNc2nc(-c3cccs3)nc3ccc(I)cc23)cc1 :: 15.1 µM (inactive)
C=CCn1c(=O)n(CC=C)c(=O)n(CC=C)c1=O :: > 100 µM (inactive)
Cc1ccc(SCC(OCn2cnc3c(Cl)nc(N)nc32)[C@H](C)F)cc1 (stereo partly specified) :: > 100 µM (inactive)

----------
Each record here notes measured GI50.
System: NCI-H460
Test: NCI tumour cell line growth inhibition, 48 h
Calls of active or inactive are those of the source. Cut-off read from the data, not from the text of the source: active = GI50 up to about 1.1 µM and inactive = higher.
Readout Kind: GI50

Cc1cn(C2C=CC(COP(=O)(OCc3ccc([N+](=O)[O-])o3)N(C)CCCCCl)O2)c(=O)[nH]c1=O (stereo unspecified) :: 10 µM (inactive)
COc1nc2ncc([C@@H](OC(C)=O)[C@@H](COC(C)=O)OC(C)=O)nc2c(=O)n1C :: > 100 µM (inactive)
Cc1cc(-c2nc3c(O)cccc3s2)ccc1N :: 30.5 µM (inactive)
COc1ccc(C(SCCO)(c2ccccc2)c2ccccc2)cc1 :: 13.3 µM (inactive)
CCC(=S)N(C)O :: 10.1 µM (inactive)
COc1ccc(CCNC(=O)CCc2ccccc2CO)cc1OC :: > 100 µM (inactive)

----------
Test system: ACHN
Experiment: NCI tumour cell line growth inhibition, 48 h
Calls of active or inactive are those of the source. Cut-off read from the data, not from the text of the source: active = GI50 up to about 1.1 µM and inactive = higher.
Items are presented alongside their recorded GI50.
Readout Kind: GI50

COc1cc(O)c(C(=O)/C=C/c2ccccc2)c(OC)c1 [FLAVOKAWAIN B] :: 8.73 µM (inactive)
COc1ccc(NS(=O)(=O)c2ccc(NC(NC(=O)CC(C)C)(C(F)(F)F)C(F)(F)F)cc2)nn1 :: > 100 µM (inactive)
CNC(=O)CCNC(=O)CCC(=O)N(C)C :: > 100 µM (inactive)
CN(C)C(=S)/N=c1\ss/c(=N\S(=O)(=O)c2ccccc2)n1N(C)C :: > 100 µM (inactive)
COc1ccc2cc3[n+](cc2c1OC)CCc1cc2c(cc1-3)OCO2 :: > 100 µM (inactive)
COc1cccc2c1C(=O)c1c(O)c3c(c(O)c1C2=O)CC(O)(C(O)CO)CC3OC1CC(N2CCOCC2)C(O)C(C)O1 (stereo unspecified) :: 0.00193 µM (active)
CCOC1OC(C)(C=C(C#N)C#N)CCC1C (stereo unspecified) :: 37.5 µM (inactive)
Cc1ccc(/C=C2\CCCCC2=O)cc1 :: 48.1 µM (inactive)
CCCCCc1cc2cc3c(c(O)c2c(=O)[nH]1)C1(CCC3)C(=O)c2c(O)ccc(O)c2C1=O :: > 100 µM (inactive)
NC(=O)c1cccc([C@@H]2O[C@H](CO)[C@@H](O)[C@H]2O)c1 :: 18.2 µM (inactive)
CCOC(=O)C(=O)NCCCN1CCOCC1 :: > 100 µM (inactive)
C=CCN(c1cc(O)c2c(c(C)cn2S(=O)(=O)c2ccccc2)c1[N+](=O)[O-])S(C)(=O)=O :: 81.1 µM (inactive)
C/C(CC(O)(C(F)(F)F)C(F)(F)F)=N\O :: > 10 µM (inactive)
CN(C)NC(=O)NC12CC3CC(CC(C3)C1)C2 :: > 100 µM (inactive)
O=C(O)c1ccc(C=C2Sc3ccccc3S2)cc1 :: 22.6 µM (inactive)
Cn1nc(S(N)(=O)=O)s/c1=N/C(N)=S :: > 100 µM (inactive)
Nc1nncc2[nH]cnc12 :: 50.1 µM (inactive)
CN(C)c1ccc(-c2c(C#N)c(-c3ccccc3)n(NS(=O)(=O)c3ccccc3)c(=O)c2C#N)cc1 :: 45.8 µM (inactive)
COc1ccc(NCc2cnc3nc(N)nc(N)c3c2C)cc1 :: 0.56 µM (active)
CC(C)=C[C@@H]1O[C@H](O)[C@@H]([C@H]2CC[C@@]3(C)[C@@H]4CC[C@H]5C(C)(C)C(=O)CC[C@@]56C[C@@]46CC[C@]23C)[C@@H]1O :: 18.1 µM (inactive)
O=C(C/N=C(\CN(c1ccccc1)c1ccccc1)Oc1ccc(Cl)cc1Cl)n1ccnc1 :: > 100 µM (inactive)
